In this section we review reported pIC50 values for a set of molecules.
# TARGET SYSTEM: Somatostatin receptor type 4 (Homo sapiens)
# Sequence (P31391 whole entry): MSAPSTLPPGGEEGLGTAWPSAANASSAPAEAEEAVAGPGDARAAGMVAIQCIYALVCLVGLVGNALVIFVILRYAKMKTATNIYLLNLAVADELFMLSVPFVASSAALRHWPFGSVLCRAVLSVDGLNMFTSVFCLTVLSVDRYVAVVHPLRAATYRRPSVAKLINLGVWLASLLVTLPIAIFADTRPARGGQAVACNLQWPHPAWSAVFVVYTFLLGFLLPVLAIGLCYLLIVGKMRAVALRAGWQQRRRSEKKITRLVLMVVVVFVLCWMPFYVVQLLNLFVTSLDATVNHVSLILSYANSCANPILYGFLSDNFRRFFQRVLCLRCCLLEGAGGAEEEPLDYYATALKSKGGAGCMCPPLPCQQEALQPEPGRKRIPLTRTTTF
# PROTOCOL DESCRIPTION: Displacement of 125I-[LTT]-SRIF-28 from human sst4 receptor in CCL39 cells after 2 hrs by autoradiography
A value of pIC50 is the negative decimal logarithm of a concentration given in moles per litre.

{"CHEMICAL SMILES": "C[C@H](N)C(=O)NCC(=O)N[C@H]1CSSC[C@@H](C(=O)O)NC(=O)[C@H](CO)NC(=O)[C@H]([C@@H](C)O)NC(=O)[C@H](Cc2ccccc2)NC(=O)[C@H]([C@@H](C)O)NC(=O)[C@H](CCCCN)NC(=O)[C@@H](Cc2ccc3ccccc3c2)NC(=O)[C@H](Cc2ccccc2)NC(=O)[C@H](Cc2ccccc2)NC(=O)[C@H](CC(N)=O)NC(=O)[C@H](CCCCN)NC1=O", "MEASURED PROPERTY": "pIC50", "EXPERIMENTAL VALUE": 7.92}

Proceeding to the next molecule to report its pIC50.
Lab note: need pIC50 with Somatostatin receptor type 4 (Homo sapiens) for entry C[C@@H](O)[C@@H]1NC(=O)[C@H](CCCCN)NC(=O)[C@@H](Cc2cn(Cc3ccccc3)cn2)NC(=O)[C@H](Cc2ccccc2)NC(=O)[C@H](Cc2ccccc2)NC(=O)[C@@H](N)CSSC[C@@H](C(=O)O)NC(=O)[C@H](Cc2ccccc2)NC1=O , please look it up.
6.23

###

# TARGET SYSTEM: Somatostatin receptor type 2 (Homo sapiens)
# Sequence (P30874 whole entry): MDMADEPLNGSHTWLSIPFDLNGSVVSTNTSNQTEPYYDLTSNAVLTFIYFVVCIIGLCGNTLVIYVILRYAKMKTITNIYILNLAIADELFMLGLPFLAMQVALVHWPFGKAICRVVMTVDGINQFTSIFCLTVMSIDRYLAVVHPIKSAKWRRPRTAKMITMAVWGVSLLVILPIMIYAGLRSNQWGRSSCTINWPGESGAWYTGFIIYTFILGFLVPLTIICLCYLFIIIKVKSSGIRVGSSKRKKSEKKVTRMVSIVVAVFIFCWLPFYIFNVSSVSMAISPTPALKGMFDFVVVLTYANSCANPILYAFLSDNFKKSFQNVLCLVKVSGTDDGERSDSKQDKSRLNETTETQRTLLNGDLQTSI
# PROTOCOL DESCRIPTION: Displacement of 125I-[LTT]-SRIF-28 from human sst2 receptor in CCL39 cells after 2 hrs by autoradiography
MEASURED PROPERTY: pIC50
pIC50 is a log-scale quantity: -log10 of the concentration expressed in molar.

Any idea what its pIC50 is? The compound is C[C@H](N)C(=O)NCC(=O)N[C@H]1CSSC[C@@H](C(=O)O)NC(=O)[C@H](CO)NC(=O)[C@H]([C@@H](C)O)NC(=O)[C@H](Cc2ccccc2)NC(=O)[C@H]([C@@H](C)O)NC(=O)[C@H](CCCCN)NC(=O)[C@@H](Cc2ccc(O)cc2)NC(=O)[C@H](Cc2ccccc2)NC(=O)[C@H](Cc2ccccc2)NC(=O)[C@H](CC(N)=O)NC(=O)[C@H](CCCCN)NC1=O
8.39

Would you mind telling me what pIC50 value was observed for C[C@H](N)C(=O)NCC(=O)N[C@H]1CSSC[C@@H](C(=O)O)NC(=O)[C@H](CO)NC(=O)[C@H]([C@@H](C)O)NC(=O)[C@H](Cc2ccccc2)NC(=O)[C@H]([C@@H](C)O)NC(=O)[C@H](CCCCN)NC(=O)[C@@H](Cc2cn(Cc3ccccc3)cn2)NC(=O)[C@H](Cc2ccccc2)NC(=O)[C@H](Cc2ccccc2)NC(=O)[C@H](CC(N)=O)NC(=O)[C@H](CCCCN)NC1=O ?
6.97

###

# TARGET SYSTEM: Somatostatin receptor type 2 (Homo sapiens)
# PROTOCOL DESCRIPTION: Displacement of 125I-[LTT]-SRIF-28 from human sst2 receptor in CCL39 cells after 2 hrs by autoradiography
MEASURED PROPERTY: pIC50
Quick note: pIC50 means taking -log10 of the concentration in moles per liter.

{"CHEMICAL SMILES": "C[C@@H](O)[C@@H]1NC(=O)[C@H](CCCCN)NC(=O)[C@@H](Cc2ccc3ccccc3c2)NC(=O)[C@H](Cc2ccccc2)NC(=O)[C@H](Cc2ccccc2)NC(=O)[C@@H](N)CSSC[C@@H](C(=O)O)NC(=O)[C@H](Cc2ccccc2)NC1=O", "pIC50": 6.76}

Please report the recorded pIC50 for C[C@H](N)C(=O)NCC(=O)N[C@H]1CSSC[C@@H](C(=O)O)NC(=O)[C@H](CO)NC(=O)[C@H]([C@@H](C)O)NC(=O)[C@H](Cc2ccccc2)NC(=O)[C@H]([C@@H](C)O)NC(=O)[C@H](CCCCN)NC(=O)[C@H](Cc2ccc3ccccc3c2)NC(=O)[C@H](Cc2ccccc2)NC(=O)[C@H](Cc2ccccc2)NC(=O)[C@H](CC(N)=O)NC(=O)[C@H](CCCCN)NC1=O .
7.82

From: ChEMBL document CHEMBL1821599
